Test: Lipophilicity, log D of the compound at pH 7.4 by UV-metric/potentiometric method
Format: physicochemical
Details: buffer

item_smiles | logD
COc1ccc2c(c1OC)CO/C(=C\c1cc[n+](Cc3ccc(F)cc3)cc1)C2=O | 1.45
COc1ccc2c(c1OC)CO/C(=C\c1cc[n+](Cc3ccccc3)cc1)C2=O | 1.28
COc1ccc2c(c1OC)CO/C(=C\c1cc[n+](Cc3ccccc3Cl)cc1)C2=O | 1.96

###

Record set of IC50 for target or system Acetylcholinesterase (Electrophorus electricus, UniProt O42275).
endpoint_name: IC50 (µM)

item_smiles | unit_symbol | value
COc1ccc(C[n+]2ccc(/C=C3\OCc4c(ccc(OC)c4OC)C3=O)cc2)cc1 | µM | 1.19
COc1ccc2c(c1OC)CO/C(=C\c1cc[n+](Cc3ccccc3Cl)cc1)C2=O | µM | 0.0159
COc1ccc2c(c1OC)CO/C(=C\c1cc[n+](Cc3cccc([N+](=O)[O-])c3)cc1)C2=O | µM | 0.456
COc1cccc(C[n+]2ccc(/C=C3\OCc4c(ccc(OC)c4OC)C3=O)cc2)c1 | µM | 0.441
COc1ccc2c(c1OC)CO/C(=C\c1cc[n+](Cc3cccc(Cl)c3)cc1)C2=O | µM | 0.0697
COc1ccc2c(c1OC)CO/C(=C\c1cc[n+](Cc3ccc([N+](=O)[O-])cc3)cc1)C2=O | µM | 3.55
COc1ccc2c(c1OC)CO/C(=C\c1cc[n+](Cc3ccccc3[N+](=O)[O-])cc1)C2=O | µM | 0.503
COc1ccc2c(c1OC)CO/C(=C\c1cc[n+](Cc3ccc(Cl)cc3)cc1)C2=O | µM | 0.646
COc1ccc2c(c1OC)CO/C(=C\c1cc[n+](Cc3cccc(F)c3)cc1)C2=O | µM | 0.0263
COc1ccc2c(c1OC)CO/C(=C\c1cc[n+](Cc3ccc(F)cc3)cc1)C2=O | µM | 0.00893
COc1ccc2c(c1OC)CO/C(=C\c1cc[n+](Cc3ccccc3)cc1)C2=O | µM | 0.0448
COc1ccc2c(c1OC)CO/C(=C\c1cc[n+](Cc3ccccc3F)cc1)C2=O | µM | 0.0211
COc1ccccc1C[n+]1ccc(/C=C2\OCc3c(ccc(OC)c3OC)C2=O)cc1 | µM | 0.64
